Listed next: entries and their corresponding hCCL1 (100 nM) residual response in %, Protocol #3, mAb 0.05 µg/mL (0.33 nM).
target: human CCR8 (human, UniProt P51685 1-355); assay: cell-based or functional assay
Quick note: give the figure in %, leave out the unit.

// below: answered binders
Task item: hCCL1 (100 nM) residual response in %, Protocol #3, mAb 0.05 µg/mL (0.33 nM) for anti-CCR8 mAb 2-4 (antibody, V domains shown) VH: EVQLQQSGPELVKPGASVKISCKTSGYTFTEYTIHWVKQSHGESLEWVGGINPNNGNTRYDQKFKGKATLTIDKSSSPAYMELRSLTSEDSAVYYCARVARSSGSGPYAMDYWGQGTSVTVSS VL: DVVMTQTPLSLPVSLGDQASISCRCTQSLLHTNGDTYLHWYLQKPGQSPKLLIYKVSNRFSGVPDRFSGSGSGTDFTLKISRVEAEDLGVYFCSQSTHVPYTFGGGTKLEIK ?
Reply: 80

Task item: Entry anti-CCR8 mAb 2-9 (antibody, V domains shown) VH: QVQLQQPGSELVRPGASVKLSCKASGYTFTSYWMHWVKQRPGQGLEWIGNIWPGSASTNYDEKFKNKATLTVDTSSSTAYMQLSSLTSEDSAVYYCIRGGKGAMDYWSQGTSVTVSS VL: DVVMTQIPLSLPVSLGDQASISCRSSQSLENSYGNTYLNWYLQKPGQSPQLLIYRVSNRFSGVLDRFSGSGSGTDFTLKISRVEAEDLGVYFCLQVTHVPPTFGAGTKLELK please
Reply: 116

Task item: Entry anti-CCR8 mAb 2-1 (antibody, V domains shown) VH: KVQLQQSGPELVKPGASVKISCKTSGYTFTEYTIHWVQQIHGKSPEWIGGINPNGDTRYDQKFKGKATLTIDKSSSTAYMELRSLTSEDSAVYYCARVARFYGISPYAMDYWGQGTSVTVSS VL: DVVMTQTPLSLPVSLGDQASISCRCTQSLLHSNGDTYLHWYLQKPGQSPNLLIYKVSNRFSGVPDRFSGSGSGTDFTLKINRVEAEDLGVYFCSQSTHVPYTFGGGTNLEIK please
Reply: 92

Task item: Entry humanized anti-CCR8 mAb 2-14 (antibody, human IgG1, kappa, V domains shown, Humanized, human IgG1 / kappa) VH: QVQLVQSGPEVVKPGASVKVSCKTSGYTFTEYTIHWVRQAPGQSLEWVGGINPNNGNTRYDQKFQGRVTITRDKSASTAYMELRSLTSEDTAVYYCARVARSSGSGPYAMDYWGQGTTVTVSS VL: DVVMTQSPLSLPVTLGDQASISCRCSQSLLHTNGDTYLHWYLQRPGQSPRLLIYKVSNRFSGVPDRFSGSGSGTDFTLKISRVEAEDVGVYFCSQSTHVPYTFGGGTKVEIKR please
Reply: 86

New cases:
Task item: hCCL1 (100 nM) residual response in %, Protocol #3, mAb 0.05 µg/mL (0.33 nM) for anti-CCR8 mAb 2-3 (antibody, V domains shown) VH: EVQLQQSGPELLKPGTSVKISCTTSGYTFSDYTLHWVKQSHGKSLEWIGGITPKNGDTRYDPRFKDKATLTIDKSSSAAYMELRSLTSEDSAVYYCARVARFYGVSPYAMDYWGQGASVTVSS VL: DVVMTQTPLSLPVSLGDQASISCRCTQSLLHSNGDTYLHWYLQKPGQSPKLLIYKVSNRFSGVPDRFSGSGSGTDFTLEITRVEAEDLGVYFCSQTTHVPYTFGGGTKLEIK ?
Reply: 102

Task item: Entry anti-CCR8 mAb 2-2 (antibody, V domains shown) VH: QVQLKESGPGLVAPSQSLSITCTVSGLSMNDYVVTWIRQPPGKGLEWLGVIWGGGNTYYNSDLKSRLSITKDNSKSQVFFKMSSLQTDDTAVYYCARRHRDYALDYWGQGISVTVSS VL: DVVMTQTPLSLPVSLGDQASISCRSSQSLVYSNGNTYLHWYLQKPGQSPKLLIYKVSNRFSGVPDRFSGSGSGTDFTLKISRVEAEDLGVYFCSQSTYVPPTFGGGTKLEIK please
Reply: 99
